Known GI50 of a selection of compounds
# Test system: K-562 leukemia
# assay remarks: NCI tumour cell line growth inhibition, 48 h

Known GI50 results, listed for orientation:
NC1=NC(c2ccccc2)N=C(Nc2ccccc2)N1 (stereo not drawn) ... > 100 µM
COc1cc2c3c(n(CCCN)c(=O)c2cc1OC)-c1ccc(F)cc1C3=O ... 1.24 µM

Shifting focus to the compound that follows.
Q. Name the recorded GI50 for `C=C1C(=O)O[C@H]2[C@H]1CC/C(COC(=O)C(=O)c1c[nH]c3ccc(OC)cc13)=C\CC[C@@]1(C)O[C@@H]21` .
A. > 100 µM

----------
# System: SW-620 colon
# assay remarks: NCI tumour cell line growth inhibition, 48 h
result type: TGI

Cc1cc(C)c2c(n1)S(=O)(=O)N(CCCN1CCN(c3cccc(C(F)(F)F)c3)CC1)/C(=C(\O)c1ccccc1)C2=O ... 29.3 µM
Oc1ccc2c(c1)OCC(O)(c1ccccc1O)C2 (stereo unspecified) ... > 100 µM
NC(=O)c1n[nH]n(-c2ccccc2)c1=O ... > 100 µM

Q. Name the recorded TGI for `C/C=C(/C)C(=O)O[C@@H]1c2c(C)coc2C[C@H]2CC[C@H](O)[C@H](C)[C@]21C` .
A. > 100 µM

Q. Name the recorded TGI for COc1cc(/C=C2\N=C(c3ccccc3)N(C3Nc4cc5c(cc4S3)NC(N3C(=O)/C(=C/c4cc(OC)c(OC)c(OC)c4)N=C3c3ccccc3)S5)C2=O)cc(OC)c1OC (stereo unspecified) .
A. > 100 µM

Q. Name the recorded TGI for `COC(=O)c1ccccc1NC(=O)C(=O)CC(=O)c1ccccc1NC1=CC(=O)C(=O)c2ccccc21` .
A. 23 µM

Q. Name the recorded TGI for `CC[N+](CC)=c1ccc2nc3c(cc(NCc4ccccc4)c4ccccc43)oc-2c1` .
A. 1.4 µM

Q. Name the recorded TGI for `N#C/C(=C\c1ccc(Br)cc1)n1nnc2cccc(F)c21` .
A. 1.94 µM

Q. Name the recorded TGI for O=C(CCCCCCCCC(=O)NN1C(=O)/C(=C\c2ccc(O)c(O)c2)SC1c1c(O)ccc2ccccc12)NN1C(=O)C(=Cc2ccc(O)c(O)c2)SC1c1c(O)ccc2ccccc12 (stereo unspecified) .
A. > 100 µM

Q. Name the recorded TGI for COc1ccc(/C=C2\CN(C)CC3=C2OC(N)=C(C#N)C3c2ccc(OC)cc2)cc1 (stereo unspecified) .
A. > 100 µM
